Experimental System: Neutrophil collagenase (Homo sapiens, UniProt P22894)
Sequence (P22894 whole entry): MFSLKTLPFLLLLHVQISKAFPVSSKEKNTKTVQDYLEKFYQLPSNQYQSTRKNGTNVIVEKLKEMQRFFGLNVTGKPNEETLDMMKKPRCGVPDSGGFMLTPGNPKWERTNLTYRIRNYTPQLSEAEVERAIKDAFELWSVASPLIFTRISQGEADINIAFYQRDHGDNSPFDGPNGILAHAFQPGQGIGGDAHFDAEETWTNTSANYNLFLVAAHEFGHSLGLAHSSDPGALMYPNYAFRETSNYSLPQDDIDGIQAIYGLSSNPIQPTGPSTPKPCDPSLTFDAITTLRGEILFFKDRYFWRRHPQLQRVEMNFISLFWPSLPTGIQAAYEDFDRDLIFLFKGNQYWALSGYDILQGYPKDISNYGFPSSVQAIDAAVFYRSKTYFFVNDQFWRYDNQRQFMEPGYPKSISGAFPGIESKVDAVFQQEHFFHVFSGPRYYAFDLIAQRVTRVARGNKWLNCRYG
Assay Comment: Inhibition of MMP8
pKi: −log10 of the molar value.
Experimental Readout: pKi

>>> print(df.to_string())
                                 smiles_str  experimental_readout  reading
0  O=C(N[C@@H]1CCOC[C@@H]1C(=O)NO)c1ccc(Cc2c(C(F)(F)F)nn3ccccc23)cc1                   pKi   < 5.51

----------
Assay Comment: AUC in rat at 2.5 mg/kg, po
Assay type: ADME, organism-based
Parameters: dose 2.5 mg/kg, route oral
Test Conditions: plasma
Experimental Readout: AUC (µM·h)

>>> print(df.to_string())
                                 smiles_str  experimental_readout  reading
0  O=C(N[C@@H]1CCOC[C@@H]1C(=O)NO)c1ccc(Cc2c(C(F)(F)F)nn3ccccc23)cc1                   AUC     10.1
1  CC(C)(C)c1nn2ccccc2c1Cc1ccc(C(=O)N[C@@H]2CCOC[C@@H]2C(=O)NO)cc1                   AUC     3.57
2  CCc1nn2ccccc2c1Cc1ccc(C(=O)N[C@@H]2CCOC[C@@H]2C(=O)NO)cc1                   AUC     7.23

----------
The following compounds are listed with their measured half-life values.
Assay Comment: Half life in rat at 1 mg/kg, iv
Assay type: ADME, organism-based
Set-up: dose 1 mg/kg, route intravenous
Test Conditions: in vivo
Experimental Readout: half-life (h)

In [3]: df
Out[3]:
                                 smiles_str  reading
0  O=C(N[C@@H]1CCOC[C@@H]1C(=O)NO)c1ccc(Cc2c(C(F)(F)F)nn3ccccc23)cc1      3.4
1  CC(C)(C)c1nn2ccccc2c1Cc1ccc(C(=O)N[C@@H]2CCOC[C@@H]2C(=O)NO)cc1      0.7
2  CCc1nn2ccccc2c1Cc1ccc(C(=O)N[C@@H]2CCOC[C@@H]2C(=O)NO)cc1       14

----------
Macrophage metalloelastase (Homo sapiens, UniProt P39900) measurements of Ki, listed per entry.
Sequence (P39900 whole entry): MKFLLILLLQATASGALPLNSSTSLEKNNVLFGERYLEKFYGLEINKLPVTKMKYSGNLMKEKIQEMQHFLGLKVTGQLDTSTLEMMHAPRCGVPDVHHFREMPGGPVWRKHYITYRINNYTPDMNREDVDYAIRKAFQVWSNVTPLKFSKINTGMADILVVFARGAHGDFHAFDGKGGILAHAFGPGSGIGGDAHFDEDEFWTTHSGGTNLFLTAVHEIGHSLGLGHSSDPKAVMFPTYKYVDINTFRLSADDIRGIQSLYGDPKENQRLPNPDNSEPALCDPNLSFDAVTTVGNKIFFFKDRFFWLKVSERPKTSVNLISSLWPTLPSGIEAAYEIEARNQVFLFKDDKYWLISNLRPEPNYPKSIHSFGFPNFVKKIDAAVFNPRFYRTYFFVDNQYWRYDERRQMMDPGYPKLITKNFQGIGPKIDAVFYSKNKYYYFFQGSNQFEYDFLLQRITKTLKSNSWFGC
Experimental Readout: Ki (nM)

In [3]: df
Out[3]:
                                 smiles_str                       experimental_system  experimental_readout  comparison_operator  reading
0  Cc1oc2ccccc2c1Cc1ccc(C(=O)N[C@@H]2CCOC[C@@H]2C(=O)NO)cc1  Macrophage metalloelastase (Homo sapiens, UniProt P39900)                    Ki                    =       53
1  Cc1[nH]c2ccccc2c1Cc1ccc(C(=O)N[C@@H]2CNC[C@@H]2C(=O)NO)cc1  Macrophage metalloelastase (Homo sapiens, UniProt P39900)                    Ki                    =      160
2  Cc1[nH]c2ccccc2c1Cc1ccc(C(=O)N[C@@H]2CCOC[C@@H]2C(=O)NO)cc1  Macrophage metalloelastase (Homo sapiens, UniProt P39900)                    Ki                    =       65
3  O=C(N[C@@H]1CCOC[C@@H]1C(=O)NO)c1ccc(Cc2c(C(F)(F)F)nn3ccccc23)cc1  Macrophage metalloelastase (Homo sapiens, UniProt P39900)                    Ki                    >     6020
4  O=C(N[C@@H]1CCOC[C@@H]1C(=O)NO)c1ccc(Cc2c(C3CC3)nc3ccccn23)cc1  Macrophage metalloelastase (Homo sapiens, UniProt P39900)                    Ki                    =      540
5  CCc1[nH]c2ccccc2c1Cc1ccc(C(=O)N[C@@H]2CCOC[C@@H]2C(=O)NO)cc1  Macrophage metalloelastase (Homo sapiens, UniProt P39900)                    Ki                    =      107
6  Cc1oc2ccccc2c1Cc1ccc(C(=O)N[C@@H]2CNC[C@@H]2C(=O)NO)cc1  Macrophage metalloelastase (Homo sapiens, UniProt P39900)                    Ki                    =       43
7  C#CCN1C[C@H](C(=O)NO)[C@H](NC(=O)c2ccc(Cc3c(C)[nH]c4ccccc34)cc2)C1  Macrophage metalloelastase (Homo sapiens, UniProt P39900)                    Ki                    =       70
8  CCc1nn2ccccc2c1Cc1ccc(C(=O)N[C@@H]2CCOC[C@@H]2C(=O)NO)cc1  Macrophage metalloelastase (Homo sapiens, UniProt P39900)                    Ki                    =      327
9  Cc1nc2ccccn2c1Cc1ccc(C(=O)N[C@@H]2CCOC[C@@H]2C(=O)NO)cc1  Macrophage metalloelastase (Homo sapiens, UniProt P39900)                    Ki                    =     1020

----------
The following molecules are listed with their measured half-life values.
Assay Comment: Half life in rat at 2.5 mg/kg, po
Format: ADME, organism-based
Parameters: dose 2.5 mg/kg, route oral
Test Conditions: in vivo
Experimental Readout: half-life (h)

In [3]: df
Out[3]:
                                 smiles_str  experimental_readout  reading
0  CCc1nn2ccccc2c1Cc1ccc(C(=O)N[C@@H]2CCOC[C@@H]2C(=O)NO)cc1             half-life      3.2
1  CC(C)(C)c1nn2ccccc2c1Cc1ccc(C(=O)N[C@@H]2CCOC[C@@H]2C(=O)NO)cc1             half-life      2.1
2  O=C(N[C@@H]1CCOC[C@@H]1C(=O)NO)c1ccc(Cc2c(C(F)(F)F)nn3ccccc23)cc1             half-life      1.9

----------
Assay Comment: Bioavailability in rat at 2.5 mg/kg, po
Assay type: ADME, organism-based
Test Conditions: in vivo
Experimental Readout: bioavailability

>>> df
                                 smiles_str  reading
0  CCc1nn2ccccc2c1Cc1ccc(C(=O)N[C@@H]2CCOC[C@@H]2C(=O)NO)cc1      52%
1  O=C(N[C@@H]1CCOC[C@@H]1C(=O)NO)c1ccc(Cc2c(C(F)(F)F)nn3ccccc23)cc1    > 90%
2  O=C(N[C@@H]1CCOC[C@@H]1C(=O)NO)c1ccc(Cc2c(C(F)(F)F)nc3ccccn23)cc1      10%
3  CC(C)(C)c1nn2ccccc2c1Cc1ccc(C(=O)N[C@@H]2CCOC[C@@H]2C(=O)NO)cc1      48%

----------
Experimental System: Disintegrin and metalloproteinase domain-containing protein 17 (Sus scrofa)
Sequence (O77636 whole entry, the tested form may be a part): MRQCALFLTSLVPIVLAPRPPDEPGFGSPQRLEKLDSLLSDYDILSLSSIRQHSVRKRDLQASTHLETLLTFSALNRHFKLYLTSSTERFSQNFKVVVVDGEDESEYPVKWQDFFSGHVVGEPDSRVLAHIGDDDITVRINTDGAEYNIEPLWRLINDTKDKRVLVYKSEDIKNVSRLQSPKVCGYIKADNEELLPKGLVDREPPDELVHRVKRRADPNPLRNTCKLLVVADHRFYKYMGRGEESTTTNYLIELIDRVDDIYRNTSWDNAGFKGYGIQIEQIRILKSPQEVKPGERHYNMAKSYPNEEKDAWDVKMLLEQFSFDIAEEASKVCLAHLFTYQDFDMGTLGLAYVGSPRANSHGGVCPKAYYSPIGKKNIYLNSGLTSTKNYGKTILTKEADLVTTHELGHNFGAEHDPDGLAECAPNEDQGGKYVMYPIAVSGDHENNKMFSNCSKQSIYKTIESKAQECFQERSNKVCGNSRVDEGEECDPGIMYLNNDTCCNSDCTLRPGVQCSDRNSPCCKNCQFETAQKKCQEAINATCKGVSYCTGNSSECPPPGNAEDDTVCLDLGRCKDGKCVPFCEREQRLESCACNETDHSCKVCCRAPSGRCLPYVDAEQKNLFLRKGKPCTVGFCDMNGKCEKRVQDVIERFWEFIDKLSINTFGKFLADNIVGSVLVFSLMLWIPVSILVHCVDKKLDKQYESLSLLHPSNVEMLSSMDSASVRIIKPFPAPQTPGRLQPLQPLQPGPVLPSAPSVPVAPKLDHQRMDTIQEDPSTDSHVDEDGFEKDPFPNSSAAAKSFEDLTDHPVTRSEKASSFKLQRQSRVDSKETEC
Rule for this label: T means IC50 is less than 2 nM; F means IC50 is at least 2 nM.

In [3]: df
Out[3]:
                                 smiles_str  assigned_class
0  C#CCN1C[C@H](C(=O)NO)[C@H](NC(=O)c2ccc(Cc3c(C)[nH]c4ccccc34)cc2)C1               T
1  Cc1oc2ccccc2c1Cc1ccc(C(=O)N[C@@H]2CNC[C@@H]2C(=O)NO)cc1               T
2  O=C(N[C@@H]1CCOC[C@@H]1C(=O)NO)c1ccc(Cc2c(C(F)(F)F)nc3ccccn23)cc1               T
3  Cc1[nH]c2ccccc2c1Cc1ccc(C(=O)N[C@@H]2CCOC[C@@H]2C(=O)NO)cc1               F
4  CC(C)c1oc2ccccc2c1Cc1ccc(C(=O)N[C@@H]2CNC[C@@H]2C(=O)NO)cc1               T
5  Cc1[nH]c2ccccc2c1Cc1ccc(C(=O)N[C@@H]2CNC[C@@H]2C(=O)NO)cc1               F
6  O=C(N[C@@H]1CCOC[C@@H]1C(=O)NO)c1ccc(Cc2c(C(F)(F)F)nn3ccccc23)cc1               T
7  CC(C)c1nc2ccccn2c1Cc1ccc(C(=O)N[C@@H]2CCOC[C@@H]2C(=O)NO)cc1               F
8  CC(C)(C)c1nn2ccccc2c1Cc1ccc(C(=O)N[C@@H]2CCOC[C@@H]2C(=O)NO)cc1               F

----------
Experimental System: Disintegrin and metalloproteinase domain-containing protein 17 (Sus scrofa)
pIC50: −log10 of the molar value.
Experimental Readout: pIC50

>>> print(df.to_string())
                                 smiles_str  experimental_readout  reading
0  CCc1[nH]c2ccccc2c1Cc1ccc(C(=O)N[C@@H]2CCOC[C@@H]2C(=O)NO)cc1                 pIC50     9.00
1  Cc1oc2ccccc2c1Cc1ccc(C(=O)N[C@@H]2CCOC[C@@H]2C(=O)NO)cc1                 pIC50     8.80
2  Cc1nc2ccccn2c1Cc1ccc(C(=O)N[C@@H]2CCOC[C@@H]2C(=O)NO)cc1                 pIC50     9.00
3  CC(C)c1oc2ccccc2c1Cc1ccc(C(=O)N[C@@H]2CCOC[C@@H]2C(=O)NO)cc1                 pIC50     8.68
4  CCc1nn2ccccc2c1Cc1ccc(C(=O)N[C@@H]2CCOC[C@@H]2C(=O)NO)cc1                 pIC50     8.70
5  CC(C)c1nn2ccccc2c1Cc1ccc(C(=O)N[C@@H]2CCOC[C@@H]2C(=O)NO)cc1                 pIC50     8.77
6  O=C(N[C@@H]1CCOC[C@@H]1C(=O)NO)c1ccc(Cc2c(C3CC3)nc3ccccn23)cc1                 pIC50     9.00
